Test system: Acinetobacter baumannii ATCC17978
Assay: Antimicrobial susceptibility testing: 90% growth inhibitory concentration (IC90) determination, Iso-Sensitest broth, OD 600 nm
Assay type: cell-based
Conditions: Acinetobacter baumannii, ATCC17978, 16 h, 90% growth inhibitory concentration, Acinetobacter baumannii ATCC17978, Iso-Sensitest broth, OD 600 nm over 16 h; read-out: ATCC 17978 IC90
Counter-ions that a name gives are not always drawn.
PARAMETER_MEASURED: IC90

// field: IC90; key: `CCc1cc(Nc2nccn3c(-c4ccc(OC)c(F)c4F)cnc23)ccc1C(=O)NCCCNCCN` ; value = 590 nM

// field: IC90; key: Cc1cc(Nc2nccn3c(-c4ccc(OC(F)F)cc4)cnc23)ccc1C(=O)NCCNCCN [Example 101, hydrochloride] ; value = 440 nM

// field: IC90; key: `Cc1cc(Nc2nccn3c(-c4ccc(OC(F)F)cc4)cnc23)ccc1C(=O)NCCOCCNC(=O)CN1CCN(C)CC1` ; value = 1200 nM

// field: IC90; key: `COc1ccc(-c2cnc3c(Nc4ccc(C(=O)NCCOCCN5CCOCC5)c(C)c4)nccn23)cc1` ; value = 480 nM

====

So I've got a bunch of molecules here, and I need their log10(IC90) values.
Tested on: Acinetobacter baumannii ATCC17978
Assay: Antimicrobial susceptibility testing: 90% growth inhibitory concentration (IC90) determination, Iso-Sensitest broth, OD 600 nm
Assay type: cell-based
Details: Acinetobacter baumannii, ATCC17978, 16 h, 90% growth inhibitory concentration, Acinetobacter baumannii ATCC17978, Iso-Sensitest broth, OD 600 nm over 16 h; read-out: ATCC 17978 IC90
Where a name gives a salt, the structure may show the parent alone.
Heads up: the numbers are on a log10 scale; they represent IC90 in nM.

// field: log10(IC90); key: `C#CCOc1ccc(-c2cnc3c(Nc4ccc(C(=O)NCCOCCN)c(C)c4)nccn23)cc1` ; value = 2.08

// field: log10(IC90); key: `CCc1cc(Nc2nccn3c(-c4ccc(OC)c(F)c4F)cnc23)ccc1C(=O)NCCCNCC(=O)O` ; value = 2.58

// field: log10(IC90); key: `Cc1cc(Nc2nccn3c(-c4ccc(OC(F)F)cc4)cnc23)ccc1C(=O)N(C)CCOCCN1CCNCC1` ; value = 2.83

// field: log10(IC90); key: `CCc1cc(Nc2nccn3c(-c4ccc(OCC#N)c(F)c4Cl)cnc23)ccc1C(=O)NCCOCCN(C)C` ; value = 1.83

// field: log10(IC90); key: `Cc1cc(Nc2nccn3c(-c4ccc(OC(F)F)cc4)cnc23)ccc1C(=O)NCCOCCN1CCC(O)CC1` ; value = 2.53

// field: log10(IC90); key: `C#CCOc1ccc(-c2cnc3c(Nc4ccc(C(=O)NCCNCCO)c(CC)c4)nccn23)c(F)c1F` ; value = 2.69

// field: log10(IC90); key: COc1ccc(-c2cnc3c(Nc4ccc(C(=O)NCCOCCN)c(C)c4)nccn23)cc1 [Example 14, hydrochloride] ; value = 2.38

// field: log10(IC90); key: COc1ccc(-c2cnc3c(Nc4ccc(C(=O)NCCCOCC(=O)N5CCOC(CN)C5)c(C)c4)nccn23)cc1F (stereo not shown) [Example 124, hydrochloride] ; value = 2.81

// field: log10(IC90); key: `COc1ccc(-c2cnc3c(Nc4ccc(C(=O)N(C)CCOCCN5CCNCC5)c(C)c4)nccn23)cc1` ; value = 2.90

// field: log10(IC90); key: `CCc1cc(Nc2nccn3c(-c4ccc(OCC(=O)OC)c(F)c4F)cnc23)ccc1C(=O)NCCOCCN` ; value = 2.49

// field: log10(IC90); key: Cc1cc(Nc2nccn3c(-c4ccc(Cl)c(F)c4F)cnc23)ccc1C(=O)NCCNCCO [Example 80, hydrochloride] ; value = 3.71

// field: log10(IC90); key: `CCc1cc(Nc2nccn3c(-c4ccc(OC)c(F)c4F)cnc23)ccc1C(=O)NCCOCCN(C)C` ; value = 2.11

// field: log10(IC90); key: Cc1cc(Nc2nccn3c(-c4ccc(OC(F)F)cc4)cnc23)ccc1C(=O)NCCOCCNC(=O)C(N)CCCCN (stereo not shown) [Example 154, hydrochloride] ; value = 3.34

// field: log10(IC90); key: `CCc1cc(Nc2nccn3c(-c4ccc(OC)c(F)c4F)cnc23)ccc1C(=O)NCCNCC(=O)O` ; value = 2.96

// field: log10(IC90); key: Cc1cc(Nc2nccn3c(-c4ccc(OC(F)F)cc4)cnc23)ccc1C(=O)NCC[S+]([O-])CCN (stereo not shown) ; value = 2.96

// field: log10(IC90); key: CCc1cc(Nc2nccn3c(-c4ccc(OC)c(F)c4F)cnc23)ccc1C(=O)NCCOCCN(C)CC(=O)O [Example 52, hydrochloride] ; value = 2.51

// field: log10(IC90); key: `COc1ccc(-c2cnc3c(Nc4ccc(C(=O)N(C)CCOCCN5CCS(=O)(=O)CC5)c(C)c4)nccn23)cc1F` ; value = 2.72

// field: log10(IC90); key: `COCCOCCOCCNC(=O)c1ccc(Nc2nccn3c(-c4ccc(OC(F)F)cc4)cnc23)cc1C` ; value = 3.18

// field: log10(IC90); key: CCc1cc(Nc2nccn3c(-c4ccc(OC(F)F)c(F)c4F)cnc23)ccc1C(=O)NCCNCCN [Example 170, hydrochloride] ; value = 2.45

// field: log10(IC90); key: CCc1cc(Nc2nccn3c(-c4ccc(OC)c(F)c4F)cnc23)ccc1C(=O)NCCCCCNCC(=O)O [Example 50, hydrochloride] ; value = 2.28

// field: log10(IC90); key: `COc1ccc(-c2cnc3c(Nc4ccc(C(=O)N(C)CCOCCN5CCN(C6COC6)CC5)c(C)c4)nccn23)cc1F` ; value = 3.20

// field: log10(IC90); key: `COc1ccc(-c2cnc3c(Nc4ccc(C(=O)NCCOCCN5CCNCC5)c(Cl)c4)nccn23)c(F)c1F` ; value = 2.08

// field: log10(IC90); key: `COc1ccc(-c2cnc3c(Nc4ccc(C(=O)NCCOCCN)c(Br)c4)nccn23)c(F)c1F` ; value = 1.72

// field: log10(IC90); key: `COc1ccc(-c2cnc3c(Nc4ccc(C(=O)NCCOCCN5CCOC5=O)c(C)c4)nccn23)cc1` ; value = 2.86

// field: log10(IC90); key: Cc1cc(Nc2nccn3c(-c4ccc(OC(F)F)cc4)cnc23)ccc1C(=O)NCCOCCN1CCNCC1 [Example 134, hydrochloride] ; value = 2.90

// field: log10(IC90); key: `CC(=O)NCCOCCNC(=O)c1ccc(Nc2nccn3c(-c4ccc(OC(F)F)cc4)cnc23)cc1C` ; value = 2.62

// field: log10(IC90); key: COc1ccc(-c2cnc3c(Nc4ccc(C(=O)NCCOCC(=O)N5CCOC(CN)C5)c(C)c4)nccn23)cc1F (stereo not shown) [Example 135, hydrochloride] ; value = 2.91

// field: log10(IC90); key: CCc1cc(Nc2nccn3c(-c4ccc(OC)c(F)c4F)cnc23)ccc1C(=O)NCCN(C)CCN [Example 168, hydrochloride] ; value = 2.08

====

Tested on: Acinetobacter baumannii ATCC17978
Assay: Antimicrobial susceptibility testing: 90% growth inhibitory concentration (IC90) determination, Iso-Sensitest broth, OD 600 nm
Assay type: cell-based
Settings: Acinetobacter baumannii, ATCC17978, 16 h, 90% growth inhibitory concentration, Acinetobacter baumannii ATCC17978, Iso-Sensitest broth, OD 600 nm over 16 h; read-out: ATCC 17978 IC90
Protocol: Antimicrobial Susceptibility Testing: 90% Growth Inhibitory Concentration (IC90) Determination The in vitro antimicrobial activity of the compounds was determined according to the following procedure: The assay used a 10-points Iso-Sensitest broth medium to measure quantitatively the in vitro activity of the compounds against Acinetobacter baumannii ATCC17978 and Acinetobacter baumannii ATCC17961. […]
Counter-ions that a name gives are not always drawn.
So I've got a bunch of molecules here, and I need their IC90 values.
Express the result in µM but write the number alone.

// field: IC90; key: `Cc1cc(Nc2nccn3c(-c4ccc(OC(F)F)cc4)cnc23)ccc1C(=O)NCCOCCOCCOCCOCCO` ; value = 2.3

// field: IC90; key: Cc1cc(Nc2nccn3c(-c4ccc(Cl)cc4)cnc23)ccc1C(=O)NCCOCCN [Example 99, hydrochloride] ; value = 0.44

// field: IC90; key: `Cc1cc(Nc2nccn3c(-c4ccc(OC(F)F)cc4)cnc23)ccc1C(=O)NCCOCCOCCN` ; value = 0.57

// field: IC90; key: `CCc1cc(Nc2nccn3c(-c4ccc(OC)c(F)c4F)cnc23)ccc1C(=O)NCCOCCN` ; value = 0.05

====

Test system: Acinetobacter baumannii ATCC17978
Assay: Antimicrobial susceptibility testing: 90% growth inhibitory concentration (IC90) determination, Iso-Sensitest broth, OD 600 nm
Type: cell-based
Conditions: Acinetobacter baumannii, ATCC17978, 16 h, 90% growth inhibitory concentration, Acinetobacter baumannii ATCC17978, Iso-Sensitest broth, OD 600 nm over 16 h; read-out: ATCC 17978 IC90
Method: Antimicrobial Susceptibility Testing: 90% Growth Inhibitory Concentration (IC90) Determination The in vitro antimicrobial activity of the compounds was determined according to the following procedure: The assay used a 10-points Iso-Sensitest broth medium to measure quantitatively the in vitro activity of the compounds against Acinetobacter baumannii ATCC17978 and Acinetobacter baumannii ATCC17961. […]
Counter-ions that a name gives are not always drawn.
PARAMETER_MEASURED: IC90 (nM)
Express the result in nM but write the number alone.

// field: IC90; key: COc1ccc(-c2cnc3c(Nc4ccc(C(=O)NCCOCCNC(C)=O)c(C)c4)nccn23)cc1 [Example 120] ; value = 620

// field: IC90; key: CN(CCOCCN1CCNCC1)C(=O)c1ccc(Nc2nccn3c(-c4ccc(OC(F)F)cc4)cnc23)cc1Cl [Example 162, hydrochloride] ; value = 540

// field: IC90; key: Cc1cc(Nc2nccn3c(-c4ccc(OCC#CCO)cc4)cnc23)ccc1C(=O)NCCOCCN [Example 29, formate] ; value = 120

// field: IC90; key: COc1ccc(-c2cnc3c(Nc4ccc(C(=O)NCCOCCN5CC6(COC6)C5)c(C)c4)nccn23)cc1 [Example 42] ; value = 250
